Source listed as the supplement of paper PMC12042874.

# method_summary: amyloid nucleation score (Sup35N fusion, yeast selection) (log enrichment); library NNK2; higher = more nucleation; inactive = no reads after selection;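 note: zero at mode of non-aggregating sequences after 7 days selection at 30°C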
Label rule, in plain words: amyloid nucleation score of 3 and up is MET, under 3 is NOT MET.

substance	label_class
SCQLQDKLMLS	NOT MET
IFGLCCFCGSYQRY	MET

Exam item: Quick check: does LLFPQANMKDRSSPGVDWAQ have amyloid nucleation score greater than or equal to 3?
Marked response: NOT MET

Exam item: Quick check: does IALGLNSYGK have amyloid nucleation score greater than or equal to 3?
Marked response: NOT MET

* * *

# method_summary: amyloid nucleation score (Sup35N fusion, yeast selection) (log enrichment); library NNK2; higher = more nucleation; inactive = no reads after selection
endpoint: amyloid nucleation score

Solved cases below.
primary_sequence	endpoint	result
MLGHSWHF	amyloid nucleation score	inactive
FCHRRRYIFIWNIRCLSYLN	amyloid nucleation score	inactive
FRSFRRIILSFYEVNFGSII	amyloid nucleation score	inactive
NVIRHLPPSYWRSLHSQMFP	amyloid nucleation score	inactive
FNYGCFVLDSDHVAGKGILI	amyloid nucleation score	inactive

Exam item: Return reported amyloid nucleation score; argument: LHHYAFFSHM
Marked response: inactive

Exam item: Return reported amyloid nucleation score; argument: RVKYILMVQSLIFWNHILNV
Marked response: inactive

* * *

# method_summary: amyloid nucleation score (Sup35N fusion, yeast selection) (log enrichment); library NNK3; higher = more nucleation; inactive = no reads after selection
endpoint: amyloid nucleation score

Solved cases below.
substance	result
CDIHLRIY	inactive
MIRLSDTRRWIVYFHQCLCG	-0.748
RSLWALSPENRPLGKVS	inactive
ACGCYVSEIPWLRDRIKFWQ	inactive
YVHFAN	inactive
VGGGVPVTLGFSLRRSWSVV	0.199

Exam item: Return reported amyloid nucleation score; argument: IVKCLYVVCV
Marked response: inactive

Exam item: Return reported amyloid nucleation score; argument: GGVHDSLNIYGFRYGLRKGV
Marked response: inactive

Exam item: Return reported amyloid nucleation score; argument: MCFTLIKLLIQWKREDQIDE
Marked response: 1.07

Exam item: Return reported amyloid nucleation score; argument: RVYGLFTLQYWYLNLYTKGR
Marked response: 0.548

Exam item: Return reported amyloid nucleation score; argument: GSAVVAAECIGKRC
Marked response: inactive

Exam item: Return reported amyloid nucleation score; argument: EHEFYTKDNFLRGIFYNTNL
Marked response: inactive

Exam item: Return reported amyloid nucleation score; argument: LRCGSSSDELCMREWFRVDL
Marked response: inactive

Exam item: Return reported amyloid nucleation score; argument: YSGDSWYVLYVGNPPGDYWR
Marked response: 1.66

Exam item: Return reported amyloid nucleation score; argument: ELIKCFFYYNDVGV
Marked response: inactive

Exam item: Return reported amyloid nucleation score; argument: SYCTYCRKAVGCHVHDEVGG
Marked response: inactive

* * *

# method_summary: amyloid nucleation score (Sup35N fusion, yeast selection) (log enrichment); library NNK3; higher = more nucleation; inactive = no reads after selection
endpoint: amyloid nucleation score

substance	amyloid nucleation score
DYISPYCS	inactive
AWVHNSVRRHSSPSPRLGGM	inactive
VSRKMRLVWTRLVER	inactive
RRSCCLVLTIRVFCRICRDE	inactive
CVWILSQLG	-0.797
CLHEDCRMTADSLPSLRKDR	inactive

Exam item: Return reported amyloid nucleation score; argument: LYDVGYKGQMVDGGTVCCER
Marked response: -0.257

Exam item: Return reported amyloid nucleation score; argument: KDVSPVCNVPMSGWWTTAFL
Marked response: inactive

Exam item: Return reported amyloid nucleation score; argument: VEATSTRGDTAPVPERGMLG
Marked response: -1.01

Exam item: Return reported amyloid nucleation score; argument: NCSWGRRKETTDLSGSKCWT
Marked response: 0.881

Exam item: Return reported amyloid nucleation score; argument: HDIDGCIVRKSLYNGRGPLL
Marked response: inactive

Exam item: Return reported amyloid nucleation score; argument: MHSGFNRFSTYCRKVGGSYR
Marked response: inactive

Exam item: Return reported amyloid nucleation score; argument: LACSMLCVDPIADGHNFSYS
Marked response: inactive

Exam item: Return reported amyloid nucleation score; argument: RGLHLGSSTWIPTAREC
Marked response: 0.678
